meta.source: patent US8846653B2

Test system: BXPC3 cells
protocol-summary: MTT assay of BXPC3 cultures, single 50 μM dose
Assay type: cell-based, human
Parameters: unit not given here
condition-parameters: BXPC3, 50 μM, 120 hours (5 days), run 5
Answer each item with its documented MTT assay result, run 5.
Give bare numbers.

# annotated cases, reported MTT assay result, run 5 shown
[
  {
    "compound": "Cc1c(O)cc2c(c1C)O[C@](C)(CCC[C@H](C)CCC[C@H](C)CCCC(C)C)CC2",
    "MTT assay result, run 5": 0.682
  },
  {
    "compound": "CC(C)=CCC/C(C)=C/CC/C(C)=C/CC[C@]1(C)CCc2c(C)c(O)cc(C)c2O1",
    "MTT assay result, run 5": 0.457
  },
  {
    "compound": "CC(C)=CCC/C(C)=C/CC/C(C)=C/CC[C@]1(C)CCc2cc(O)c(C)c(C)c2O1",
    "MTT assay result, run 5": 0.428
  },
  {
    "compound": "CC(C)=CCC/C(C)=C/CC/C(C)=C/CC[C@]1(C)CCc2cc(O)cc(C)c2O1",
    "MTT assay result, run 5": 0.551
  },
  {
    "compound": "Cc1c(C)c2c(c(C)c1O)CC[C@@](C)(CCC[C@H](C)CCC[C@H](C)CCCC(C)C)O2",
    "MTT assay result, run 5": 0.705
  }
]

Return reported MTT assay result, run 5 values for all items listed beneath this line.
1. Cc1c(C)c2c(c(C)c1OC(=O)CCC(=O)O)CC[C@@](C)(CCC[C@H](C)CCC[C@H](C)CCCC(C)C)O2 [TS, tocopherol succinate]
2. O=C(O)CCC(=O)O
3. CC(C)=CCC/C(C)=C/CC/C(C)=C/CC/C(C)=C/CO

OUTPUT:
0.116
0.493
0.657
